src = a melting point compilation (Tetko et al.; mined from patent text by program, amines drawn as free bases though some values may be those of a salt)

quantityKind: melting point

Solved entries:
# compound, melting point
measured = [
    ("CCCc1ccnc(C(=O)OCC)c1N", "93 to 96 °C"),
    ("Oc1ccc(C(=Cc2ccccc2)c2ccc(O)c(O)c2O)c(O)c1O", "142 to 143 °C"),
    ("COCNC(=S)n1nc(Oc2c(Cl)cc(C(F)(F)F)cc2Cl)cc1C", "95 to 96 °C"),
    ("CNC(=O)CSC(c1ccccc1)(c1ccccc1)c1ccccc1", "200 to 210 °C"),
    ("O=C(O)COc1ccc(CCNS(=O)(=O)c2ccccc2)cc1[N+](=O)[O-]", "135 to 136 °C"),
]

Problem: Please report the recorded melting point for `O=C(c1ccc(Cl)cc1)c1ccc[nH]1` .
Result: 106 to 109 °C

Problem: Please report the recorded melting point for CC(=O)NC1Cc2cn(S(=O)(=O)c3c(C(C)C)cc(C(C)C)cc3C(C)C)c3cccc(c23)C1=O (stereo not given) .
Result: 159 to 162 °C

Problem: Please report the recorded melting point for `O=c1[nH]c2cc(Cl)ccc2c(O)c1-c1ccc(Cl)cc1` .
Result: > 300 °C

Problem: Please report the recorded melting point for `COc1ccc(C(CCCCCCC(=O)O)=NOCc2ccc(OCc3nc(-c4ccccc4)oc3C)cc2)cc1` .
Result: 69 to 70 °C

Problem: Please report the recorded melting point for `CN(CCOc1ccc(C=C2SC(=O)NC2=O)cc1)c1nc2ccccc2s1` .
Result: 219 °C

====

quantityKind: melting point

Solved entries:
# molecule, melting point
measured = [
    ("CN(C)C(=O)c1c([N+](=O)[O-])cccc1S(=O)(=O)N(C)CCO", "107 °C"),
    ("C=C(C)c1cccc2c(C(=O)O)cccc12", "138 to 140 °C"),
]

Problem: Please report the recorded melting point for COC(=O)C(c1ccc(OCCNC(=O)C2Cc3ccccc3N2S(=O)(=O)c2ccc(-c3cccc(C(F)(F)F)c3)cc2)cc1)C(C)C (centres undefined) .
Result: 68 to 76 °C

====

quantityKind: melting point

Solved entries:
# compound, melting point
records = [
    ("COc1ccc(Cl)cc1C(=O)NC1Cc2ccc(S(=O)(=O)NC(=O)NCC3CCCC3)cc2C1 (stereo not given)", "194 to 196 °C"),
    ("COc1cc(COc2cc3ncnc(Nc4ccc(Cl)cc4F)c3cc2OC)ccn1", "202 to 204 °C"),
    ("CCOC(=O)c1c(NC23CC4CC(CC(C4)C2)C3)n[nH]c1C", "190 to 203 °C"),
]

Problem: Please report the recorded melting point for `CCCN(Cc1ccc(-c2ccccc2-c2nc(=O)o[nH]2)cc1)c1nn(C)cc1C(=O)O` .
Result: 124 to 126 °C

Problem: Please report the recorded melting point for CCCCCCC(C)(C)c1ccc([C@@H]2CC(=O)C[C@@H](C#N)C2)c(OCc2ccccc2)c1 (relative stereo) .
Result: 79 °C

Problem: Please report the recorded melting point for `CON=CC1=CCCN(C(=O)OCC(N)=O)C1` .
Result: 131 to 133 °C

Problem: Please report the recorded melting point for `COc1ccc(COc2ccc(-c3ccc(C(=O)O)c(=O)[nH]3)cc2OC)cc1OC` .
Result: 217 to 218 °C

====

Overview of recorded melting point for various compounds

# compound, melting point
measured = [
    ("CC1=NN(c2cccc(C(=O)O)c2)C(=O)C1=c1[nH]c(=c2[nH]c(=C3C(=O)N(c4cccc(C(=O)O)c4)N=C3C)c3ccccc23)c2ccccc12", "> 300 °C"),
    ("O=C1C(=Cn2ccnc2)CSc2ccccc21", "139 to 140 °C"),
    ("COc1ccc(C2=NN(C3CCN(S(=O)(=O)N(C)C)CC3)C(=O)CC2)cc1OC", "103 to 106 °C"),
    ("COCOc1ccc(C=CC(=O)C=Cc2ccc(OCOC)c(OC)c2)cc1OC", "81 to 82 °C"),
]

Continue with the compound presented below.
Problem: Please report the recorded melting point for CCOC(=O)c1ccc(C#CC(O)c2cccc3c2C(C)(C)CCS3)cc1 (stereo not given) .
Result: 108 °C
